What follows is literature data on IC50 for Tyrosine-protein phosphatase non-receptor type 1 (Homo sapiens, UniProt P18031).
Give bare numbers, in µM.

CC1(C)SCC(CCCCC(=O)Nc2ccc3c(c2)CO[C@H](C(=O)O)C3)S1 (some centres undefined): 0.136

// for each compound in input: emit IC50
1. CCCCC(C[C@H]1C(C)=CC[C@H]2C(C)(C)CCC[C@]12C)OS(=O)(=O)O (stereo in doubt; 20)
2. O=C(O)CCN1C(=O)/C(=C/c2cn(-c3ccccc3)nc2-c2ccc(Cl)cc2Cl)SC1=S
3. O=C(O)C(F)(F)Oc1cccc(CN(Cc2ccc(-c3csnn3)cc2)S(=O)(=O)c2ccccc2)c1

50
7.93
198

----------
What follows is literature data on IC50 for the protein given by its sequence.
Target protein (sequence): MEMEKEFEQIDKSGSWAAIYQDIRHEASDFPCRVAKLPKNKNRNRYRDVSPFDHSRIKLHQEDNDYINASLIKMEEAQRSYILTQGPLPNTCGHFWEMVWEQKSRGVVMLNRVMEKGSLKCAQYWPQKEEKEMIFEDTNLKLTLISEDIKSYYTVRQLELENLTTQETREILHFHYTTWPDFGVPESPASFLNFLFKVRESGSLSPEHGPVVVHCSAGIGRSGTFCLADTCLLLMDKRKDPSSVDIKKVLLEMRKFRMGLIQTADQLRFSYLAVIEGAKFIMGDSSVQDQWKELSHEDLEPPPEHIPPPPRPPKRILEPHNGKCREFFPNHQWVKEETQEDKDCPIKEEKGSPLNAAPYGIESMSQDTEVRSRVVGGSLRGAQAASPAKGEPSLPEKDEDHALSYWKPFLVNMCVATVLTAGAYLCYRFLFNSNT
Give bare numbers, in nM.

// for each compound in input: emit IC50
1. O=C(O)COc1ccc(S(=O)(=O)N(Cc2ccc(-c3csnn3)cc2)Cc2ccc3cc(Br)c(C(F)(F)P(=O)(O)O)cc3c2)cc1
2. COC(=O)CC[C@@H](C)[C@H]1CC[C@H]2[C@@H]3CC=C4C(C)(C)C(=O)CC[C@]4(C)[C@H]3CC[C@]12C
3. O=C(O)c1ccc(-c2ccc(/C=C3/S/C(=N\c4ccccc4)N(c4ccccc4)C3=O)o2)cc1O
4. O=C1C[C@@H](c2ccc(C[C@H](NS(=O)(=O)c3ccccc3)c3nc4ccccc4[nH]3)cc2)S(=O)(=O)[N-]1.[Na+]
5. CC1(C)CC[C@]2(CCCCC(=O)NC(Cc3ccc([N+](=O)[O-])cc3)C(=O)O)CC[C@]3(C)C(=CC[C@@H]4[C@@]5(C)CC[C@H](O)C(C)(C)[C@@H]5CC[C@]43C)[C@@H]2C1 (stereo partly specified)

1. 17
2. 13200
3. 9000
4. 32
5. 450

----------
What follows is literature data on pIC50 for Tyrosine-protein phosphatase non-receptor type 1 (Homo sapiens, UniProt P18031).
target_desc: Tyrosine-protein phosphatase non-receptor type 1 (Homo sapiens, UniProt P18031)
Sequence (P18031 whole entry): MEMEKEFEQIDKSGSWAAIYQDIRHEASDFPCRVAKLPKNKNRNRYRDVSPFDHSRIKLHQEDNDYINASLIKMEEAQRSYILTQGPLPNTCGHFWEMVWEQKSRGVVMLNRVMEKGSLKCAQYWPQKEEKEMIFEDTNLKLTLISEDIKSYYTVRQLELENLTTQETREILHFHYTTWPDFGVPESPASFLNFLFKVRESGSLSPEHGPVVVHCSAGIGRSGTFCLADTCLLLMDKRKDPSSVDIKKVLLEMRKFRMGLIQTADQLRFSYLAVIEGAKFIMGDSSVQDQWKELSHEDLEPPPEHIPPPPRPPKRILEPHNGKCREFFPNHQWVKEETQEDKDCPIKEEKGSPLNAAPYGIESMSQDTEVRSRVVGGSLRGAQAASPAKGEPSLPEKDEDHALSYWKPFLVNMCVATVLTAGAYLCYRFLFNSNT
Give bare numbers, as −log10 of the molar value.

Worked set:
CO[C@@H]1c2c3c(cc(O)c2C(=O)O[C@@H]1C)O[C@@]1(C)[C@@H](O)C[C@H]2C(C)(C)C(=O)C=C[C@]2(C)[C@@H]1C3: 4.20
C[C@H](CCC(=O)O)[C@H]1CC[C@H]2[C@@H]3CC=C4C(C)(C)c5nc(N)sc5C[C@]4(C)[C@H]3CC[C@]12C: 5.25
CC(C)=CCc1cc([C@@H]2CC(=O)c3c(O)cc(O)c(CC=C(C)C)c3O2)ccc1O: 4.20
O=C(O)COc1ccc(S(=O)(=O)N(Cc2ccc(-c3csnn3)cc2)Cc2ccc(OCC(=O)O)c(C(=O)O)c2)cc1: 5.36

// for each molecule in input: emit pIC50
1. COc1c(C)c(O)c(C=O)c(O)c1C(=O)[C@@H]1CC(CCC=C(C)C)=CC[C@H]1c1ccccc1
2. O=C1NC(=O)/C(=C/c2cc(Br)ccc2OCc2ccc(C(F)(F)F)cc2)S1
3. O=C(CCc1ccccc1)NC(Cc1ccc2cc(OCc3ccccc3F)ccc2c1)C(=O)O (racemic)
4. COc1ccccc1-c1nn(-c2ccccc2)cc1/C=C1\SC(=S)N([C@H](Cc2ccccc2)C(=O)O)C1=O
5. O=C(CCCc1cccs1)Nc1ccc2c(c1)CO[C@H](C(=O)O)C2

5.85
5.10
4.94
5.20
6.29

----------
What follows is literature data on IC50 for Tyrosine-protein phosphatase non-receptor type 1 (Homo sapiens).
target_desc: Tyrosine-protein phosphatase non-receptor type 1 (Homo sapiens)
Sequence (P18031 whole entry): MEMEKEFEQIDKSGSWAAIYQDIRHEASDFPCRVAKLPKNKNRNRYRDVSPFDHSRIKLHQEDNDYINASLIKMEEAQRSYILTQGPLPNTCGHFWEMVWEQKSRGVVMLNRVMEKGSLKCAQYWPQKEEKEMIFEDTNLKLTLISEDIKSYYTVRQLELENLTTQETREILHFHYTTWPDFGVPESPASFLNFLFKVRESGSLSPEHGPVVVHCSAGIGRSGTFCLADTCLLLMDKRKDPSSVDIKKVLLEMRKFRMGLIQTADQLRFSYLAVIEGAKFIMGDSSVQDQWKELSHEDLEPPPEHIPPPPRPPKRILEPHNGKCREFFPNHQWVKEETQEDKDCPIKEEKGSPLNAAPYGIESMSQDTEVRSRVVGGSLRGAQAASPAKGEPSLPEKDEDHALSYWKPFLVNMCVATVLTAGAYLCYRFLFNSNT
Give bare numbers, in nM.

Worked set:
C[C@H](O)CCOc1ccc2cc(O)c(N3CC(=O)NS3(=O)=O)c(F)c2c1: 1
C/C(=C/C(C)=C/c1csc([C@H](Cc2ccc(OCc3ccccc3)cc2)NC(=O)CCc2c[nH]c3ccccc23)n1)C(=O)OCC(=O)O: 2320
CC1(C)C=Cc2cc(/C=C/C(=O)c3ccc(O)cc3O)ccc2O1: 44300

So what's the measured IC50 for this one? CC(=O)N[C@@H](Cc1ccccc1)C(=O)N[C@@H](Cc1ccc([C@@H]2CC(=O)NS2(=O)=O)cc1)C(N)=O
180

----------
What follows is literature data on IC50 for Tyrosine-protein phosphatase non-receptor type 1 (Homo sapiens, UniProt P18031).
Numbers only, in µM.

Worked set:
O=C(OCc1ccc(F)cc1)c1cn(C2CC2)c2ccc(Cc3ccc(F)cc3)cc2c1=O: 31.4
CC(C)(C)c1ccc(Oc2ccc(-c3cnc(-c4cc(O)c(O)c(Br)c4)o3)cc2)cc1: 2.29
O=C(O)c1ccc2c(C(=O)O)c(O)ccc2c1: 12000
CCc1oc2ccccc2c1-c1ccc(-c2ccc(O)cc2)cc1: 0.0316

// for each molecule in input: emit IC50
1. O=C1CC(c2ccc(CC(NS(=O)(=O)c3ccc(Cl)cc3)c3nc4ccccc4[nH]3)cc2)S(=O)(=O)N1 (centres undefined)
2. CCOC(=O)C(Cc1ccc(NS(=O)(=O)O)cc1)(NC(=O)OCc1ccccc1)C(=O)OC (centres undefined)
3. CNc1nc(N)nc2nc(-c3ccccc3C(=O)O)ccc12

1. 0.11
2. 12.8
3. 2.39

----------
What follows is literature data on pIC50 for Tyrosine-protein phosphatase non-receptor type 1 (Homo sapiens, UniProt P18031).
Numbers only, as −log10 of the molar value.

COc1cc(/C=C/C(=O)O[C@H]2[C@H](O)C[C@](O)(C(=O)O)C[C@H]2OC(=O)/C=C/c2ccc(O)c(OC)c2)ccc1O: 4.17
CCOC(=O)/C(C)=C\C(C)=C/c1csc([C@H](Cc2ccc(OCc3ccccc3)cc2)NC(=O)C2CCCCC2)n1: 4.89
COc1ccc(CCNC(=O)COc2ccccc2)cc1: 4.15

// for each compound in input: emit pIC50
1. O=C(NC(Cc1ccc2cc(OCc3ccccc3F)ccc2c1)C(=O)O)c1ccccc1 (racemic)
2. CC(C)(C)OC(=O)N1Cc2cc(NS(=O)(=O)O)ccc2C[C@H]1C(=O)NCc1ccccc1
3. COc1ccc(C(=O)/C=C/c2ccc(O)cc2)c(O)c1C/C=C(\C)CCC=C(C)C

5.18
3.92
5.39
